experiment.description: chemical genetic growth profiling, strain panel (AID 1159580);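 also: tested at 20 µM; growth read once vehicle control cultures reached saturation at 30 °C; 1 = growth at the plate median or of vehicle wells; lower values mean less growth of the strain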
condition.description: S. cerevisiae deletion strains, growth OD, locus YDR001C, strain nth1, active compounds read low
About 2,000 (36%) of roughly 5,500 compounds were called active. About 18% were inconclusive and are not listed. This is one part of the list.
metric: normalized growth
Give a plain numeric answer without units written out.

Sample answers from the record:
compound	normalized growth
O=C(O)C1(O)C[C@@H](O)C(O)[C@H](O)C1 (some centres not stated)	0.975
CCCCCCCCNC(C)C(O)c1ccc(SC(C)C)cc1 (configuration not stated)	0.06

Sample CNC(C)[C@H](O)c1ccccc1 (some centres not stated) ; normalized growth observed: 0.996

Sample CC(NCCc1ccc(O)cc1)C(O)c1ccc(O)cc1 (configuration not stated) ; normalized growth observed: 0.998

Sample "Cc1cc(O)c(C=O)c(O)c1C(=O)O" ; normalized growth observed: 0.999

Sample "COc1cc2c(cc1OC)[C@@H]1C(=O)c3ccc4c(c3O[C@@H]1CO2)C=CC(C)(C)O4" ; normalized growth observed: 1.01

Sample "COc1ccc2c(c1)O[C@@H]1COc3cc(OC)c(OC)cc3[C@@H]1C2=O" ; normalized growth observed: 0.97

Sample "COc1cc2c(cc1OC)[C@@H]1C(=O)c3ccc(OC)c(CC=C(C)C)c3O[C@@H]1CO2" ; normalized growth observed: 1.02

Sample "CC1=C(C/C=C(\C)CCC[C@H](C)CCC[C@H](C)CCCC(C)C)C(=O)c2ccccc2C1=O" ; normalized growth observed: 0.993

Sample "CC(C)c1c(C(=O)c2ccccc2)c(-c2ccccc2)c(-c2ccc(F)cc2)n1CC[C@@H](O)C[C@@H](O)CC(=O)O" ; normalized growth observed: 0.957

====

experiment.description: chemical genetic growth profiling, strain panel (AID 1159580)
condition.description: S. cerevisiae deletion strains, growth OD, locus YIL066C, strain RNR3
Among all 5,500 compounds or so, about 2,000 (36%) were called active. Another 18% or so got no clear call; they are omitted. Cut-off read from the data, not from the text of the source: active = normalized growth mostly below about 0.91 (no sharp cut-off); inconclusive = no clear call, values can overlap the other calls; inactive = mostly above about 0.92. Some of the results follow.
Choose the fitting class; nothing outside true (1) (active), false (0) (inactive) is accepted.

// known answers, use as guide
compound	answer.label
CC(C)CC(NC(=O)C(Cc1ccccc1)NC(=O)CNC(=O)CNC(=O)C(N)Cc1ccc(O)cc1)C(=O)O (stereo unspecified)	false (0)
C=C1C2CC[C@H]3[C@]4(C)C[C@H](OC5OC(CO)C(OS(=O)(=O)O)C(OS(=O)(=O)O)C5OC(=O)CC(C)C)C[C@@H](C(=O)O)[C@H]4CC[C@]3(C2)[C@H]1O (stereo partly specified)	false (0)
CN(C)C(=S)SSC(=S)N(C)C	true (1)
CC(=O)NC1SCCC1=O (stereo unspecified)	false (0)

// outcome(item) with item = COCCc1ccc(OCC(O)CNC(C)C)cc1 (stereo unspecified)
false (0)

// outcome(item) with item = "COC1=C(OC)C(=O)C(C/C=C(\C)CC/C=C(\C)CC/C=C(\C)CC/C=C(/C)CC/C=C(\C)CC/C=C(\C)CC/C=C(\C)CC/C=C(\C)CC/C=C(\C)CCC=C(C)C)=C(C)C1=O"
false (0)

// outcome(item) with item = COc1cc2c(cc1OC)C1C(=O)c3c(O)cc4c(c3OC1CO2)C=CC(C)(C)O4 (stereo unspecified)
false (0)

// outcome(item) with item = COc1cc2c(cc1OC)C1C(=O)c3c(OC)cc4c(c3OC1CO2)CCC(C)(C)O4 (stereo unspecified)
false (0)

// outcome(item) with item = "COC1=CC(=O)C[C@@H](C)[C@]12Oc1c(Cl)c(OC)cc(OC)c1C2=O"
false (0)

// outcome(item) with item = C[C@]12CC(=O)C3C(CC[C@@H]4C[C@H](O)CC[C@]34C)C1CC[C@]2(O)C(=O)CO (stereo partly specified)
false (0)

// outcome(item) with item = "COc1ccc2c(c1OC)C(=O)O[C@H]2[C@H]1c2cc3c(cc2CCN1C)OCO3"
false (0)

// outcome(item) with item = "CCC(=O)O[C@H]1[C@H](O[C@@H]2[C@@H](C)[C@H](O[C@H]3C[C@@](C)(OC)[C@@H](O)[C@H](C)O3)[C@@H](C)C(=O)O[C@H](CC)[C@@](C)(O)[C@H](O)[C@@H](C)C(=O)[C@H](C)C[C@@]2(C)O)O[C@H](C)C[C@@H]1N(C)C"
true (1)

// outcome(item) with item = CO[C@H]1[C@H](O)[C@H](O[C@H]2CC[C@]3(C)C4CC[C@]5(C)C(C6=CC(=O)OC6)CC[C@]5(O)C4CC[C@@H]3C2)O[C@@H](C)[C@@H]1O (stereo partly specified)
false (0)

// outcome(item) with item = "CCOC(=O)CCC(=O)O[C@H]1[C@H](O[C@@H]2[C@@H](C)[C@H](O[C@H]3C[C@@](C)(OC)[C@@H](O)[C@H](C)O3)[C@@H](C)C(=O)O[C@H](CC)[C@@](C)(O)[C@H](O)[C@@H](C)C(=O)[C@H](C)C[C@@]2(C)O)O[C@H](C)C[C@@H]1N(C)C"
false (0)

====

Reported normalized growth values for a set of molecules
experiment.description: chemical genetic growth profiling, strain panel (AID 1159580);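 also: tested at 20 µM; growth read once vehicle control cultures reached saturation at 30 °C; 1 = growth at the plate median or of vehicle wells; lower values mean less growth of the strain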
condition.description: S. cerevisiae deletion strains, growth OD, locus YJL092W, strain hpr5, active compounds read low
In all, about 5,500 compounds went through this assay and about 2,000 (36%) were called active. Another 18% or so got no clear call; they are omitted. The list shows a part of the results.
Give a plain numeric answer without units written out.

Sample answers from the record:
smiles.code	normalized growth
COC1=C(OC)C(=O)C(C/C=C(\C)CC/C=C(\C)CC/C=C(\C)CC/C=C(/C)CC/C=C(\C)CC/C=C(\C)CC/C=C(\C)CC/C=C(\C)CC/C=C(\C)CCC=C(C)C)=C(C)C1=O	0.958
CC(=O)O[C@H]1[C@@H]2[C@@H](OC(=O)Cc3ccccc3)[C@@H](C)C[C@]2(OC(C)=O)C(=O)/C(C)=C/[C@H]2[C@H](CC[C@@]13CO3)C2(C)C	0.97

Sample "COc1cc2c(cc1OC)[C@@H]1C(=O)c3ccc4oc(C(C)C)cc4c3O[C@@H]1CO2" ; normalized growth observed: 0.968

====

experiment.description: chemical genetic growth profiling, strain panel (AID 1159580);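 also: tested at 20 µM; growth read once vehicle control cultures reached saturation at 30 °C; 1 = growth at the plate median or of vehicle wells; lower values mean less growth of the strain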
condition.description: S. cerevisiae deletion strains, growth OD, locus YGR078C, strain PAC10, active compounds read low
In all, about 5,500 compounds went through this assay and about 2,000 (36%) were called active. About 18% were inconclusive and are not listed. Some of the results follow.
metric: normalized growth

Sample answers from the record:
molecule	normalized growth
Clc1ccc(N2CCN(Cc3c[nH]c4ncccc34)CC2)cc1	0.975 (inactive)
CC(C)(C)c1ccc(-c2nc(-c3cc(C(C)(C)C)c(O)c(C(C)(C)C)c3)cs2)cc1	1.02 (inactive)
COc1cc(/C=C2\NC(=O)NC2=O)ccc1O	0.977 (inactive)
OC1(c2ccc(Cl)cc2)CCN(Cc2c[nH]c3ccccc23)CC1	1.02 (inactive)
NC(=O)c1ccc[n+]([C@@H]2O[C@H](COP(=O)([O-])OP(=O)(O)OC[C@H]3O[C@@H](n4cnc5c(N)ncnc54)[C@H](O)[C@@H]3O)[C@@H](O)[C@H]2O)c1	1.02 (inactive)
CCOC(=O)c1cc(C)nc(Sc2ccccc2)c1C#N	0.763 (active)

Sample "CC1(C)OC(=O)NC1=O" ; normalized growth observed: 0.992 (inactive)

Sample CN1CCCN=C1COC(=O)C(O)(c1ccccc1)C1CCCCC1 (stereo not given) ; normalized growth observed: 0.991 (inactive)

Sample "Ic1ccc(N2CCN(Cc3c[nH]c4ncccc34)CC2)cc1" ; normalized growth observed: 0.851 (active)

Sample "O=C(O)C1=CCCN(CCON=C(c2ccccc2)c2ccccc2)C1" ; normalized growth observed: 0.993 (inactive)

====

experiment.description: chemical genetic growth profiling, strain panel (AID 1159580);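 also: tested at 20 µM; growth read once vehicle control cultures reached saturation at 30 °C; 1 = growth at the plate median or of vehicle wells; lower values mean less growth of the strain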
condition.description: S. cerevisiae deletion strains, growth OD, locus YDR502C, strain sam2, active compounds read low
The whole screen tested about 5,500 compounds, of which about 2,000 (36%) were called active. Another 18% or so got no clear call; they are omitted. The list shows a part of the results.
Reported normalized growth values for a set of compounds
Give a plain numeric answer without units written out.

Sample answers from the record:
compound	reported.result
NC(=O)c1ccc[n+]([C@@H]2O[C@H](COP(=O)([O-])OP(=O)(O)OC[C@H]3O[C@@H](n4cnc5c(N)ncnc54)[C@H](O)[C@@H]3O)[C@@H](O)[C@H]2O)c1	0.992
Cc1cc(O)c(C=O)c(O)c1C(=O)O	1.03
CC(C(=O)O)c1ccc(-c2ccccc2)c(F)c1 (configuration not stated)	0.968
CC(C[N+](C)(C)C)OC(N)=O (configuration not stated)	0.991

Sample "CC(=O)OCC[N+](C)(C)C" ; normalized growth observed: 1.01

Sample CC1(C)C(C=C(Cl)Cl)C1C(=O)OC(C#N)c1cccc(Oc2ccccc2)c1 (configuration not stated) ; normalized growth observed: 0.998

Sample CC(C(=O)O)c1cccc(Oc2ccccc2)c1 (configuration not stated) ; normalized growth observed: 0.981

Sample "CS(=O)(=O)c1ccc(C2=C(c3ccccc3)C(=O)OC2)cc1" ; normalized growth observed: 0.983

Sample Cc1cccc(C)c1OCC(C)N (configuration not stated) ; normalized growth observed: 1

Sample COc1ccc(OC)c(C(O)C(C)N)c1 (configuration not stated) ; normalized growth observed: 1

Sample "c1ccc(N=Nc2ccccc2)cc1" ; normalized growth observed: 1.02

Sample "COc1ccc2cc([C@H](C)C(=O)O)ccc2c1" ; normalized growth observed: 0.964
